Please respond with reported PBM binding z-score for every item in the list.
tested on: RARb homodimer (NR concentration 270 nM); assay: PBM binding z-score (relative to random genomic background probes); higher = stronger binding; sequences stand for … in GC…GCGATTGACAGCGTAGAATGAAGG

Would you be so kind as to report PBM binding z-score for each listed record?
1. GCTCGTAGGACAAGGTCAGAGCTTTGTCCGTAGA
2. CCTACTGGTCCATCAGGTCATTGATATCAACGTT
3. CCTACCGGGCCAAAGGTCATTGATTCCAATGCTC

Result:
1: 2.93; 2: 2.5; 3: 4.57

----------
system: RXRa homodimer (NR concentration 180 nM); assay: PBM binding z-score (relative to random genomic background probes); higher = stronger binding; sequences stand for … in GC…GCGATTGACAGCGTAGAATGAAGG
Label Criterion met when PBM binding z-score is at or above 0.8; anything below gets Criterion not met.

Examples from the recorded data:
TCATATAGGGAAAGGTGAAAGTCGAACGATATGA :: Criterion met
TCGAGTAGGTTAGTCGGGGCATTCAACCAACATA :: Criterion not met
CAAACTAGGTCACAGAGGTCAAAGTCCGTGCGTA :: Criterion met
ATCGAAAGGTCGAAGTGAGTATAGAGAAAGGGAA :: Criterion met
TGAACGAGGTTATAAGATCAGGGAACGTTGCAAA :: Criterion met
CCGACTTGGGCATAAGGTTACCATAAGCCAGCCC :: Criterion met
CCAACTGGGCCACGAAAGGTCATTGATTCAGTGA :: Criterion met
TCTATTTGGTCACGGAGGTCACACACGACGGGTA :: Criterion met

Q: Say whether CGTCAAAGTTCTACTAAGGTAACGTAAAGCACGC shows PBM binding z-score of 0.8 or more.
Result: Criterion not met

Q: Decide: is the reported value of PBM binding z-score for TAGCCTAGGTCAGATCGGGCCAGTGTACGCTATA equal to or greater than 0.8?
Result: Criterion met

Q: Is it the case that ACTATTAGTTGAGACGAGGACAACCGATAGGTTG has PBM binding z-score reaching or exceeding 0.8?
Result: Criterion not met

Q: Does the reported PBM binding z-score for CCTCGGAGGACAGAAGGTCACAGCTGTCCGCTTT fall at or above the 0.8 mark?
Result: Criterion met

Q: For this sequence, is measured PBM binding z-score 0.8 or higher? CAGTCTAGGTCAGGGCCAGTATAGGAGGAACGTT
Result: Criterion met

Q: Hi team, for CCTATTAGTTGGCCATAAGGGCAACCGAAGCTCG , is the recorded PBM binding z-score at or above 0.8?
Result: Criterion not met

Q: Dear colleague, could you confirm whether CGTCCAAGCTCAGAGAGGTCAGTGAATGCCGAGT has PBM binding z-score at or above 0.8?
Result: Criterion met

Q: Confirm if PBM binding z-score reported for the sequence CAAACTAGGTCAAGGTCAATGTCGGTTTGTGCCA is 0.8 or above.
Result: Criterion met

Q: Exam item: decide whether the reported PBM binding z-score for TAGCCTAGGTCATTGGGCCAGGATAGTACGCATC is at least 0.8.
Result: Criterion met

Q: // inclusive: PBM binding z-score at least 0.8? input: ATATGTAGGCTACATCCGGGTCATTCAGGCTATG
Result: Criterion met
